So I've got a bunch of molecules here, and I need their URINE values.
tested on: T-380 tumors; assay: Hapten biodistribution, premix protocol with bifunctional antibody ECH037.2; type: in vivo, nude mice; settings: 48 hours; premix with 20 µg ECH037.2

Record O=C(O)CCCC(=O)NCCNC(=S)Nc1ccc(CC(CN(CC(=O)O)CC(=O)O)N(CC(=O)O)CC(=O)O)cc1 (centres unmarked) [GNUBE] : what is its URINE with T-380 tumors?
26.9% of total injected dose

Record O=C(O)CCCNC(=S)Nc1ccc(CC(CN(CC(=O)O)CC(=O)O)N(CC(=O)O)CC(=O)O)cc1 (centres unmarked) [BATUBE] : what is its URINE with T-380 tumors?
30.4% of total injected dose

Record NCCNC(=S)Nc1ccc(CC(CN(CC(=O)O)CC(=O)O)N(CC(=O)O)CC(=O)O)cc1 (centres unmarked) [NUBE] : what is its URINE with T-380 tumors?
52.6% of total injected dose

Record NC(=S)Nc1ccc(CC(CN(CC(=O)O)CC(=O)O)N(CC(=O)O)CC(=O)O)cc1 (centres unmarked) [TUBE] : what is its URINE with T-380 tumors?
48.8% of total injected dose

Record CCCCCCCCNC(=S)Nc1ccc(CC(CN(CC(=O)O)CC(=O)O)N(CC(=O)O)CC(=O)O)cc1 (centres unmarked) [OTUBE] : what is its URINE with T-380 tumors?
10.9% of total injected dose
